- study.target: T1, Csa3Sso WT (Saccharolobus solfataricus P2, UniProt Q97Y88 1-237)
- T1 sequence: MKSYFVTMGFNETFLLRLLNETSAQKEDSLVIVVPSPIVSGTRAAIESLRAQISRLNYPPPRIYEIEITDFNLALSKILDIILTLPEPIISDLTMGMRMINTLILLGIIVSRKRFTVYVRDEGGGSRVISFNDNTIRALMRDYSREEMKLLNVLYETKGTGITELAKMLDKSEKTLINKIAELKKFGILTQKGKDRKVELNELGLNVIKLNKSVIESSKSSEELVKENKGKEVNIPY
- assay.text: MST; no cOA; precipitate removed; MST buffer not given in the material; Cy5 EMSA: 50 nM probe, 0.5-25 uM protein, 5% acrylamide TBE, 4 C; agarose EMSA: 2% TBE, room temperature; crystals: 20 mM
- conditions: protein: recombinant; tags: N-terminal His6; chain copies: 2; blunt
reported.endpoint: pKd
The scale used: pKd is minus the common logarithm of the concentration in molar units.

Task: // pKd lookup, key: PCas4a (dsDNA) DNA 1: AAAGAATTCCCGAATTTACTAGGGAT DNA 2: ATCCCTAGTAAATTCGGGAATTCTTT
Result: 5.79
